- Tested on: S. pneumoniae D39V;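 also: first quartile when negative (synergy) and third quartile when positive (antagonism)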
- method: Bliss interaction score (quartile over a dose matrix) (fitness difference); higher = more antagonism (negative = synergy)
Decision: Bliss interaction score compared against 0.03; not below it gives satisfied, below it gives not satisfied.

Illustrative cases are given below, each with its answer.
>>> assigned_class("CC(=O)OC[C@H]1O[C@@H]([S-])[C@H](OC(C)=O)[C@@H](OC(C)=O)[C@@H]1OC(C)=O.CCP(CC)CC.[Au+] [Auranofin] + CC[C@H]1OC(=O)[C@H](C)C(=O)[C@H](C)[C@@H](O[C@@H]2O[C@H](C)C[C@H](N(C)C)[C@H]2O)[C@](C)(OC)C[C@@H](C)C(=O)[C@H](C)[C@H]2N(CCCCn3cnc(-c4cccnc4)c3)C(=O)O[C@]12C [Telithromycin]")
"satisfied"
>>> assigned_class("CC[C@H]1OC(=O)[C@H](C)[C@@H](O[C@H]2C[C@@](C)(OC)[C@@H](O)[C@H](C)O2)[C@H](C)[C@@H](O[C@@H]2O[C@H](C)C[C@H](N(C)C)[C@H]2O)[C@](C)(OC)C[C@@H](C)C(=O)[C@H](C)[C@@H](O)[C@]1(C)O [Clarithromycin] + COc1ccc(C[C@H](N)C(=O)N[C@H]2[C@@H](O)[C@H](n3cnc4c(N(C)C)ncnc43)O[C@@H]2CO)cc1 [Puromycin]")
"not satisfied"
>>> assigned_class("N[C@@H]1CONC1=O [CycloserineD] + CN[C@H](CC(C)C)C(=O)N[C@H]1C(=O)N[C@@H](CC(N)=O)C(=O)N[C@H]2C(=O)N[C@H]3C(=O)N[C@H](C(=O)N[C@H](C(=O)O)c4cc(O)cc(O)c4-c4cc3ccc4O)[C@H](O[C@H]3C[C@](C)(N)[C@@H](O)[C@H](C)O3)c3ccc(c(Cl)c3)Oc3cc2cc(c3O[C@@H]2O[C@H](CO)[C@@H](O)[C@H](O)[C@H]2O[C@H]2C[C@](C)(NCc3ccc(-c4ccc(Cl)cc4)cc3)[C@@H](O)[C@H](C)O2)Oc2ccc(cc2Cl)[C@H]1O [Oritavancin]")
"satisfied"
>>> assigned_class("C[C@@H](O)[C@H]1C(=O)N2C(C(=O)O)=C(SCCNC=N)C[C@H]12 [Imipenem] + CO[C@@]12[C@H](COC(N)=O)C3=C(C(=O)C(C)=C(N)C3=O)N1C[C@@H]1N[C@@H]12 [MitomycinC]")
"not satisfied"

Prompt: Tell me whether Bliss interaction score is at least 0.03 here: CC(=O)OC[C@H]1O[C@@H]([S-])[C@H](OC(C)=O)[C@@H](OC(C)=O)[C@@H]1OC(C)=O.CCP(CC)CC.[Au+] [Auranofin] + O=C(O)[C@H]1/C(=C/CO)O[C@@H]2CC(=O)N21 [Clavulanic]
Completion: not satisfied

Prompt: Does Bliss interaction score meet or surpass 0.03 for CC[C@H]1OC(=O)[C@H](C)[C@@H](O[C@H]2C[C@@](C)(OC)[C@@H](O)[C@H](C)O2)[C@H](C)[C@@H](O[C@@H]2O[C@H](C)C[C@H](N(C)C)[C@H]2O)[C@](C)(OC)C[C@@H](C)C(=O)[C@H](C)[C@@H](O)[C@]1(C)O [Clarithromycin] + CC1=C\[C@@H](O)CC(=O)Cc2nc(co2)C(=O)N2CCC=C2C(=O)O[C@H](C(C)C)[C@H](C)/C=C/C(=O)NC\C=C\1 [Virginiamycin M1] ?
Completion: satisfied

Sourced from the supplement of paper PMC10627819
